Where do the numbers come from? From patent US20080200531A1.

# procedureSummary: Plasma level of SNX9 one hour after IV injection, HPLC analysis
# Format: in vivo
# experimentalSetup: NCr nude, mouse, one hour after IV injection of 70 mg/kg, two mice
valueType: concentration at 1 h

Task: Need concentration at 1 h of Cc1[nH]c2c(Cl)cccc2c1CCN , thanks.
Result: ~250 µM
